testedSystem: dopamine D2 receptors (Rattus norvegicus, UniProt P61169)
Construct: found in homogenized limbic brain tissue
Sequence (P61169 whole entry): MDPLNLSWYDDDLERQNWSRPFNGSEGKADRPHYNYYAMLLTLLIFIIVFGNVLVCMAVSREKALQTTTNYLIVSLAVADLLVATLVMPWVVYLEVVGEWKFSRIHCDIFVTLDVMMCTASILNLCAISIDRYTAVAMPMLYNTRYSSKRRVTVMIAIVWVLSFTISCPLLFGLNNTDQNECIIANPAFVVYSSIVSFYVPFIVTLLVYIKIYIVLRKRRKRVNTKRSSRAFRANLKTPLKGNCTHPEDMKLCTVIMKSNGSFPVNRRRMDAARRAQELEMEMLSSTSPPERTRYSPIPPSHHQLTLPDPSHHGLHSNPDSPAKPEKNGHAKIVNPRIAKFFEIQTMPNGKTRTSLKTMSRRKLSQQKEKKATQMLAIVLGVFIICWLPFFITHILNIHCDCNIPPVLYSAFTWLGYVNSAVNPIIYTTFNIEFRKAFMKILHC
experimentNotes: inhibition of 3H-haloperidol binding at dopamine D2 receptors in homogenized limbic brain tissue
conditions: 3H-haloperidol, read-out: Receptor Binding D2 Ki
pKi: −log10 of the molar value.

{"columns": ["compound", "pKi"],
 "data": [
  ["COc1cccc(C(CCN2CCN(Cc3ccccc3)CC2)C2(O)CCCCC2)c1 (stereo not shown) [Example 1]", 6.68]
]}

----------
testedSystem: 5-HT1A receptor (Rattus norvegicus)
Construct: from tissue; host or cells: rat hippocampus
Sequence (P19327 1-422): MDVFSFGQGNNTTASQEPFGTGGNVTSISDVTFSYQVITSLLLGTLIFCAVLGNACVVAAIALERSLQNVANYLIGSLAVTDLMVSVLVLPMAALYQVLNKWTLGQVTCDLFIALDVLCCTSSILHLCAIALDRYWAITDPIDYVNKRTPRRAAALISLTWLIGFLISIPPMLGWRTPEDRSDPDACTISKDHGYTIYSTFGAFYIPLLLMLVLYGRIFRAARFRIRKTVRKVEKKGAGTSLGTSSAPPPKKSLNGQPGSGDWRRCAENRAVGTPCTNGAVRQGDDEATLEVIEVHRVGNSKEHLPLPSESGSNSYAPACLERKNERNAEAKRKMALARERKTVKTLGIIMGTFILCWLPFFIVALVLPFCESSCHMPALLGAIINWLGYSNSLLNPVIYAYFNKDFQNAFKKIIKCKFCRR
experimentNotes: inhibition of [3H] 8-hydroxy-2-(di-n-propylamino)tetralin binding at 5-HT1A receptor sites
conditions: at 1 μM, rat hippocampal tissue
Where inhibition at 1 µM equals or exceeds 90%, the correct label is Yes; where it does not, the label is No.

{"columns": ["molecule", "qualitativeLabel"],
 "data": [
  ["COc1cccc(C(CCN2CCN(Cc3cccc(Cl)c3)CC2)C2(O)CCCCC2)c1 (stereo not drawn) [Example 4]", "No"],
  ["COc1ccc(C(CCN2CCN(Cc3cccc(Cl)c3)CC2)C2(O)CCCCC2)cc1 (stereo not drawn) [Example 12]", "Yes"],
  ["COc1cccc(C(CCN2CCN(Cc3cccc(F)c3)CC2)C2(O)CCCCC2)c1 (stereo not drawn) [Example 7]", "Yes"],
  ["COc1ccc(C(CCN2CCN(Cc3cccc(C(F)(F)F)c3)CC2)C2(O)CCCCC2)cc1 (stereo not drawn) [Example 11]", "Yes"],
  ["COc1cccc(C(CCN2CCN(Cc3ccccc3OC)CC2)C2(O)CCCCC2)c1 (stereo not drawn) [Example 6]", "Yes"],
  ["CN1CCN(CC(c2cccc(Cl)c2)C2(O)CCCCC2)CC1 (stereo not drawn) [Example 26]", "No"],
  ["OC1(C(CN2CCN(c3cccc(Cl)c3)CC2)c2cccc(Cl)c2)CCCCC1 (stereo not drawn) [Example 19]", "Yes"],
  ["COc1ccc(C(CCN2CCN(Cc3cccc(OC)c3)CC2)C2(O)CCCCC2)cc1 (stereo not drawn) [Example 10]", "Yes"],
  ["CN1CCN(CC(c2cccc(C(F)(F)F)c2)C2(O)CCCCC2)CC1 (stereo not drawn) [Example 27]", "No"]
]}
